subject_of_test: Serine/threonine-protein kinase PLK1 (Homo sapiens)
experimental_details: Inhibition of human PLK1 assessed as residual activity at 0.1 uM relative to control
# Activity listing for each entry below
Output spec: scalar in %, unitless text.

Solved cases (5 shown):
- chemical_string: "CN(C)S(=O)(=O)c1ccc2c(c1)/C(=C/c1cn(C)c3ccc(O)cc13)C(=O)N2"
  unit_label: "%"
  Activity: 93
- chemical_string: "COc1ccc2c(c1)c(/C=C1\\C(=O)Nc3ccc(S(N)(=O)=O)cc31)cn2C"
  unit_label: "%"
  Activity: 93
- chemical_string: "CNS(=O)(=O)c1ccc2c(c1)/C(=C/c1cn(C)c3ccc(OC)cc13)C(=O)N2"
  unit_label: "%"
  Activity: 92
- chemical_string: "COc1ccc2c(c1)c(/C=C1\\C(=O)Nc3ccc(S(=O)(=O)N(C)C)cc31)cn2C"
  unit_label: "%"
  Activity: 83
- chemical_string: "Cn1cc(/C=C2\\C(=O)Nc3ccc(S(N)(=O)=O)cc32)c2ccccc21"
  unit_label: "%"
  Activity: 102

Here's the next entry for you.
Please look up its Activity: "COc1ccc2[nH]cc(/C=C3\C(=O)Nc4ccc(S(N)(=O)=O)cc43)c2c1" 93

* * *

# Activity listing for each entry below
subject_of_test: High affinity nerve growth factor receptor (Homo sapiens)
Sequence (P04629 33-796 limits assumed): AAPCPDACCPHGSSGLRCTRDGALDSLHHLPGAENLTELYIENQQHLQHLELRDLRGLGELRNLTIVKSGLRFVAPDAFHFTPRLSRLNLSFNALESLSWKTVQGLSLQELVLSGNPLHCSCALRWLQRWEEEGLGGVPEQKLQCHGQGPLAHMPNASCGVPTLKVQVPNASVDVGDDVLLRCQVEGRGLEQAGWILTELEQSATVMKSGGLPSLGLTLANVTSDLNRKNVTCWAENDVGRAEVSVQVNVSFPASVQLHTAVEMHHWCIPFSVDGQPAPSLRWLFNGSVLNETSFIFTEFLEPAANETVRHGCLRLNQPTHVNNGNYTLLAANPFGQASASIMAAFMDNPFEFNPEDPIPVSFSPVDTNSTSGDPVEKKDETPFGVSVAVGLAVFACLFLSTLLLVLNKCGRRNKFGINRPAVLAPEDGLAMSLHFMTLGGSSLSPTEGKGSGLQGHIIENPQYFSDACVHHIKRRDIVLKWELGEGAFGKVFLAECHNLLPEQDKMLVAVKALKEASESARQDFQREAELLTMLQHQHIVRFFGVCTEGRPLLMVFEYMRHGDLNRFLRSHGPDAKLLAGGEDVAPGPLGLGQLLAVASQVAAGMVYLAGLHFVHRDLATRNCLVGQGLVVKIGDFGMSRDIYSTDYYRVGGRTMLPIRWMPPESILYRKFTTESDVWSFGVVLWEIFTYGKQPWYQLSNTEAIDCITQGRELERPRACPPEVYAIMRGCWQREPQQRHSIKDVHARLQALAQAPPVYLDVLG
experimental_details: Inhibition of human TRKA assessed as residual activity at 1 uM relative to control
Output spec: scalar in %, unitless text.

Solved cases (5 shown):
- chemical_string: "COc1ccc2c(c1)c(/C=C1\\C(=O)Nc3ccc(S(=O)(=O)N(C)C)cc31)cn2C"
  subject_of_test: "High affinity nerve growth factor receptor (Homo sapiens)"
  outcome_measure: "Activity"
  measured: 6
- chemical_string: "COc1ccc2c(c1)c(/C=C1\\C(=O)Nc3ccc(S(N)(=O)=O)cc31)cn2C"
  subject_of_test: "High affinity nerve growth factor receptor (Homo sapiens)"
  outcome_measure: "Activity"
  measured: 1
- chemical_string: "CNS(=O)(=O)c1ccc2c(c1)/C(=C/c1cn(C)c3ccc(OC)cc13)C(=O)N2"
  subject_of_test: "High affinity nerve growth factor receptor (Homo sapiens)"
  outcome_measure: "Activity"
  measured: 3
- chemical_string: "CN(C)S(=O)(=O)c1ccc2c(c1)/C(=C/c1cn(C)c3ccc(O)cc13)C(=O)N2"
  subject_of_test: "High affinity nerve growth factor receptor (Homo sapiens)"
  outcome_measure: "Activity"
  measured: 2
- chemical_string: "Cn1cc(/C=C2\\C(=O)Nc3ccc(S(N)(=O)=O)cc32)c2ccccc21"
  subject_of_test: "High affinity nerve growth factor receptor (Homo sapiens)"
  outcome_measure: "Activity"
  measured: 2

Here's the next entry for you.
Please look up its Activity: "COc1ccc2[nH]cc(/C=C3\C(=O)Nc4ccc(S(N)(=O)=O)cc43)c2c1" 0

* * *

subject_of_test: Eukaryotic elongation factor 2 kinase (Homo sapiens) (UniProt O00418)
Sequence (whole entry): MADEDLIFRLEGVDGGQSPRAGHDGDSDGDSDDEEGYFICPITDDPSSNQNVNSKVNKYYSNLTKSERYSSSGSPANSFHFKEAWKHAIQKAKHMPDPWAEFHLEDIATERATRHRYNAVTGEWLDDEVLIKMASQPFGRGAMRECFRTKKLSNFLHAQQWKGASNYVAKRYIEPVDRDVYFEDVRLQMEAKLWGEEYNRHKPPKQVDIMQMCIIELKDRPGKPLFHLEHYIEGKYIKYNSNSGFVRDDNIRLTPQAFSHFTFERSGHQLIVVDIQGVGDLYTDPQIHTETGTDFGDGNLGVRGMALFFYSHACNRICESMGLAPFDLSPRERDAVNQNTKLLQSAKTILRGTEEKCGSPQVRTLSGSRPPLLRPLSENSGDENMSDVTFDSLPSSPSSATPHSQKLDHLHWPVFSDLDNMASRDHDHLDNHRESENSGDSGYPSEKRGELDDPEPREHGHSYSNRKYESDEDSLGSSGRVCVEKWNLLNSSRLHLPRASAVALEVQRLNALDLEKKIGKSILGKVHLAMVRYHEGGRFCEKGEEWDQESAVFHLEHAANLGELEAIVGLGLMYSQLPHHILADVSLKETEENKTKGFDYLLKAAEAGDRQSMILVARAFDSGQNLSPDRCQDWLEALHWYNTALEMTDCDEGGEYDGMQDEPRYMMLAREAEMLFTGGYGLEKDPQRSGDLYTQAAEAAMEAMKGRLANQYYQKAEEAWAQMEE
experimental_details: Inhibition of human EEF2K assessed as residual activity at 1 uM relative to control
outcome_measure: Activity (%)
Output spec: scalar in %, unitless text.

- chemical_string: "CN(C)S(=O)(=O)c1ccc2c(c1)/C(=C/c1cn(C)c3ccc(O)cc13)C(=O)N2"
  unit_label: "%"
  measured: 106
- chemical_string: "COc1ccc2[nH]cc(/C=C3\\C(=O)Nc4ccc(S(N)(=O)=O)cc43)c2c1"
  unit_label: "%"
  measured: 112
- chemical_string: "COc1ccc2c(c1)c(/C=C1\\C(=O)Nc3ccc(S(=O)(=O)N(C)C)cc31)cn2C"
  unit_label: "%"
  measured: 86
- chemical_string: "CNS(=O)(=O)c1ccc2c(c1)/C(=C/c1cn(C)c3ccc(OC)cc13)C(=O)N2"
  unit_label: "%"
  measured: 92
- chemical_string: "Cn1cc(/C=C2\\C(=O)Nc3ccc(S(N)(=O)=O)cc32)c2ccccc21"
  unit_label: "%"
  measured: 103

Here's the next entry for you.
Look up Activity with Eukaryotic elongation factor 2 kinase (Homo sapiens) (UniProt O00418) for this compound: "COc1ccc2c(c1)c(/C=C1\C(=O)Nc3ccc(S(N)(=O)=O)cc31)cn2C" 102
